- Tested on: Ruminococcus gnavus DSM 108212
- experimentNotes: fold change of Tryptamine concentration vs plate DMSO controls (fold change (ratio)); higher = more amine produced, active = hit call of the paper (significant change in both replicates, either direction)
- settings: incubation time: 27 h, anaerobic, 37 °C
Counter-ions that a name gives are not always drawn.
quantity: fold change of Tryptamine concentration

compound | system | reportedResult
CCn1nc(C(=O)O)c(=O)c2cc3c(cc21)OCO3 [Cinoxacin] (20 µM) | Ruminococcus gnavus DSM 108212 | 1
Cc1c(C(=O)NN2CCCCC2)nn(-c2ccc(Cl)cc2Cl)c1-c1ccc(Cl)cc1 [Rimonabant] (20 µM) | Ruminococcus gnavus DSM 108212 | 0.897
OC[C@@H](O)[C@@H](O)CO [Erythritol] (50 µM) | Ruminococcus gnavus DSM 108212 | 0.974
CC1CC(OC(=O)c2ccccc2O)CC(C)(C)C1 (centres undefined) [Homosalate] (20 µM) | Ruminococcus gnavus DSM 108212 | 0.952
Nc1ccc(S(=O)(=O)Nc2ccnn2-c2ccccc2)cc1 [Sulfaphenazole] (20 µM) | Ruminococcus gnavus DSM 108212 | 0.994
CN(C)CCCN1c2ccccc2Sc2ccccc21 [Promazine hydrochloride] (20 µM) | Ruminococcus gnavus DSM 108212 | 0.823
Nc1nnc(-c2cccc(Cl)c2Cl)c(N)n1 [Lamotrigine] (20 µM) | Ruminococcus gnavus DSM 108212 | 1.04
CC(CCc1ccc(O)cc1)NCCc1ccc(O)c(O)c1 (centres undefined) [Dobutamine hydrochloride] (20 µM) | Ruminococcus gnavus DSM 108212 | 1.02
CN(C)c1ccc2nc3ccc(=[N+](C)C)cc-3sc2c1 [Methylene blue] (20 µM) | Ruminococcus gnavus DSM 108212 | 1.02

###

- Test system: Clostridium sporogenes DSM 1664
- experimentNotes: growth (OD595) fold change vs plate DMSO controls (fold change (ratio)); higher = more growth
- settings: incubation time: 27 h, anaerobic, 37 °C
Where a name gives a salt, the structure may show the parent alone.

molecule | system | growth
C[C@H]1O[C@H](O[C@H]2[C@H](O)[C@@H](O)[C@@H](O[C@@H]([C@H](O)[C@@H](O)C=O)[C@H](O)CO)O[C@@H]2CO)[C@H](O)[C@@H](O)[C@@H]1N[C@H]1C=C(CO)[C@@H](O)[C@H](O)[C@H]1O [Acarbose] (20 µM) | Clostridium sporogenes DSM 1664 | 0.918
Cc1cc(N)c2ccccc2[n+]1CCCCCCCCCC[n+]1c(C)cc(N)c2ccccc21 [Dequalinium dichloride] (20 µM) | Clostridium sporogenes DSM 1664 | 0.993
CN(C)CCOC(=O)COc1ccc(Cl)cc1 [Meclofenoxate hydrochloride] (20 µM) | Clostridium sporogenes DSM 1664 | 1.13
CN1CCC(=C2c3ccccc3CCc3sccc32)CC1 [Pizotifen malate] (20 µM) | Clostridium sporogenes DSM 1664 | 1.3
CN[C@@H]1[C@@H](O[C@H]2O[C@H](CO)[C@@H](N)[C@H](O)[C@H]2O)OC2C[C@@H](N)[C@@H](O[C@H]3[C@H](O)[C@@H](O)[C@H](N)C[C@@H]3N)OC2[C@@H]1O (stereo partly specified) [Apramycin] (20 µM) | Clostridium sporogenes DSM 1664 | 1.18
Cc1c(C)c2c(c(C)c1O)CCC(C)(COc1ccc(CC3SC(=O)NC3=O)cc1)O2 (stereo unspecified) [Troglitazone] (20 µM) | Clostridium sporogenes DSM 1664 | 1.31

Source listed as the supplement of paper PMC12494721.
